Molecular target: Human DGAT1 (Homo sapiens, UniProt O75907)
Construct: made in house; host or cells: Sf9 insect cells (baculovirus); microsomes
Sequence (O75907 1-488): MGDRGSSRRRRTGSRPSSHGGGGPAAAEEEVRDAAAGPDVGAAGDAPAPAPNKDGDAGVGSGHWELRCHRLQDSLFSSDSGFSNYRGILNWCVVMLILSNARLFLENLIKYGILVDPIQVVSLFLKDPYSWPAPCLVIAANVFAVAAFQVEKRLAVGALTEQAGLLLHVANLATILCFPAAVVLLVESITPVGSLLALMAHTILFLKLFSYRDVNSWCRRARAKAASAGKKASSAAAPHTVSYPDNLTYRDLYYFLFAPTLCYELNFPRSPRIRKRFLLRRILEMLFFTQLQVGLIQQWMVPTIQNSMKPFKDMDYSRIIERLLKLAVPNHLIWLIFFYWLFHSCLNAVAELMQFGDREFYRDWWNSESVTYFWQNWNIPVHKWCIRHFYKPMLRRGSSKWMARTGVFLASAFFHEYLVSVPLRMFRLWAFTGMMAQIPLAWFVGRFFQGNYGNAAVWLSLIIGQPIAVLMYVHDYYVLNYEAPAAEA
Assay: hDGAT1 fluorescence (CPM) assay, inhibition of CoA product formation
Format: biochemical
Conditions: human DGAT1 microsomes from Sf9 cells
PARAMETER_MEASURED: IC50 (nM)
Numbers only here, please. The scale is nM.

// below: answered compounds
// Input: CCCn1c(-c2ccccc2)cc2cc(N3CCOc4ncnc(N)c4C3=O)ccc21 . Output its IC50 only.
10.1

Answer with the recorded IC50 of Nc1ncnc2c1C(=O)N(c1ccc3c(ccn3-c3ccccc3F)c1)CCO2 only.
2.5

Continuing:
# return recorded IC50 for entry Nc1ncnc2c1C(=O)N(c1ccc3c(ccn3-c3cnccn3)c1)CCO2
55.1

Kindly indicate its recorded IC50. Item: Nc1ncnc2c1C(=O)N(c1ccc3c(c1)CCC(=O)N3CC(=O)O)CCO2
372

Supply measured IC50 of Nc1ncnc2c1C(=O)N(c1cnc3c(ccn3CCO)c1)CCO2 in your reply.
49.5

Give the measured IC50 for CN1CCc2cc(N3CCOc4ncnc(N)c4C3=O)ccc2C1=O
85.8

Please indicate IC50 recorded for C=CCn1c2ccc(N3CCOc4ncnc(N)c4C3=O)cc2c(=O)n1Cc1ccccc1
42

Return value of IC50 for input Nc1ncnc2c1C(=O)N(c1cnc3c(ccn3-c3ccc(C(F)(F)F)cc3)c1)CCO2 , no commentary.
42.5
